Friendly reminder: logP below 2 is yes (1), at or above is no (0).

[[record]]
compound = "CN(C)C(=O)Nc1ccc(Oc2nnn(C)n2)cc1"
label = "yes (1)"

[[record]]
compound = "C=CCn1nnc(Oc2ccc(NC(=O)N(C)C)cc2)n1"
label = "yes (1)"


Decide: logP of `CNC(=O)N(C)C(=O)Nc1cc(F)ccc1F` strictly below 2?
no (0)

Consider `CC(C)n1nnc(Oc2ccc(NC(=O)N(C)C)cc2)n1` . Does its logP lie strictly below 2?
yes (1)

Below 2 on logP? Entry `CNC(=O)N(C)C(=O)Nc1cc(S(=O)(=O)C(C)C)ccc1F`
yes (1)

Quick check: does `CNC(=O)N(C)C(=O)Nc1cc([N+](=O)[O-])ccc1F` have logP under 2?
no (0)

Find out if reported logP for `CNC(=O)N(C)C(=O)Nc1cc(OC)ccc1F` is less than 2
no (0)

Is it true that logP reported for `CCOC(=O)Cn1nnnc1Oc1ccc(NC(=O)N(C)C)cc1` is less than 2?
yes (1)

Problem: For the compound c1ccc(C2=NOC3COC(c4ccccc4)OCC23)cc1 (configuration not stated) , is logP under 2?
no (0)

In the record for `CCn1nnc(Oc2ccc(NC(=O)N(C)C)cc2)n1` , is logP less than 2?
yes (1)

Field: below-cutoff. Rule: recorded logP strictly less than 2. Subject: `CNC(=O)N(C)C(=O)Nc1cc(-c2ccccc2)ccc1F`
no (0)

Find out if reported logP for `CN(C)C(=O)Nc1ccc(Oc2nnnn2C(C)(C)C)c(Cl)c1` is less than 2
no (0)

logP under 2? Item: `CCCCCCCCn1nnc(Oc2ccc(NC(=O)N(C)C)cc2)n1`
no (0)

Bench note: check whether `C#CCn1nnc(Oc2ccc(NC(=O)N(C)C)cc2)n1` shows logP below 2
yes (1)

Does this compound meet the criterion logP < 2? `CNC(=O)N(C)C(=O)Nc1cc(C(C)(C)C)ccc1F`
no (0)

Decide: logP of `CCc1ccc(F)c(NC(=O)N(C)C(=O)NC)c1` strictly below 2?
no (0)

API: query returns whether the compound falls strictly under 2 in logP. Query: Cc1ccccc1C1OCC2ON=C(c3ccccc3)C2CO1 (configuration not stated)
no (0)

---

Rule: logP of 2 or more gives y; anything lower gives n.

Solved entries:
[[record]]
smiles_code = "CN(C)C(=O)Nc1ccc(Oc2nnn(C(C)(C)C)n2)cc1"
label = "y"

[[record]]
smiles_code = "CNC(=O)N(C)C(=O)Nc1cc(I)ccc1F"
label = "y"


Textbook exercise: given the entry `CCC(CC)c1ccc(F)c(NC(=O)N(C)C(=O)NC)c1` , state whether its logP is greater than or equal to 2.
y

Please indicate if the recorded logP for `CN(C)C(=O)Nc1ccc(Oc2nnnn2Cc2ccccc2)cc1` meets or exceeds 2.
n

Check if logP >= 2 (inclusive). Item: `CNC(=O)N(C)C(=O)Nc1cc(OC(C)C)ccc1F`
y

Is logP at least 2? Consider `CN(C)C(=O)Nc1ccc(Oc2nnn(C3CCCCC3)n2)cc1`
y

Could you tell me if the measured logP of `CN(C)C(=O)Nc1ccc(Oc2nnn(Cc3ccccc3)n2)cc1` reaches 2 or more?
y

Threshold query (logP >= 2) on `CNC(=O)N(C)C(=O)Nc1cc(Cc2ccccc2)ccc1F`
y

Would you say `CCCCCCCCn1nnnc1Oc1ccc(NC(=O)N(C)C)cc1` shows logP at minimum 2?
y

Please check the record `C#CCn1nnnc1Oc1ccc(NC(=O)N(C)C)cc1` and state if its logP is at or above 2.
n

State whether the measured logP reaches 2, counting equality as reaching it, for `CN(C)C(=O)Nc1ccc(Oc2nnn(CCC#N)n2)cc1`
n

Does the reported logP for `CNC(=O)N(C)C(=O)Nc1cc(C(C)=O)ccc1F` fall at or above the 2 mark?
n
